TARGET OR TEST SYSTEM: 5HT1A receptor (Rattus norvegicus)
Sequence (P19327 1-422): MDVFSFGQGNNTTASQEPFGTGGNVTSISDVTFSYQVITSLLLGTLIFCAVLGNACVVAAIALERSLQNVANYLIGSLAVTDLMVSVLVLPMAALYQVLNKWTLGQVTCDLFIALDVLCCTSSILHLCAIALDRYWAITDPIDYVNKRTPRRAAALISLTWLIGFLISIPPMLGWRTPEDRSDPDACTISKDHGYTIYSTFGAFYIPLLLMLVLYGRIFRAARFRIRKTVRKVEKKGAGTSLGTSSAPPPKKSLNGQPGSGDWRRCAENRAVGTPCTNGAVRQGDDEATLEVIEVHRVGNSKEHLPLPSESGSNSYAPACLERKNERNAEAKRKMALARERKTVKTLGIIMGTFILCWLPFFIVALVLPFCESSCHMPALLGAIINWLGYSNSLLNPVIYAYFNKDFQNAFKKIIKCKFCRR
VALUE KIND: IC50 (nM)
Unit nM implied. Number only.

Identify the reported IC50 for the following entry. COc1ccccc1N1CCN(C/C(=C/C(=O)N2CCCCCC2)c2ccccc2)CC1 [Example 3 (E-isomer)]
9
